Cited source: paper PMC8151276

# system: GRM5 (Homo sapiens)
# Construct: purchased Promega (in-house HiBiT-GPCR construct library, NanoBRET)
# Sequence (P41594 21-1212): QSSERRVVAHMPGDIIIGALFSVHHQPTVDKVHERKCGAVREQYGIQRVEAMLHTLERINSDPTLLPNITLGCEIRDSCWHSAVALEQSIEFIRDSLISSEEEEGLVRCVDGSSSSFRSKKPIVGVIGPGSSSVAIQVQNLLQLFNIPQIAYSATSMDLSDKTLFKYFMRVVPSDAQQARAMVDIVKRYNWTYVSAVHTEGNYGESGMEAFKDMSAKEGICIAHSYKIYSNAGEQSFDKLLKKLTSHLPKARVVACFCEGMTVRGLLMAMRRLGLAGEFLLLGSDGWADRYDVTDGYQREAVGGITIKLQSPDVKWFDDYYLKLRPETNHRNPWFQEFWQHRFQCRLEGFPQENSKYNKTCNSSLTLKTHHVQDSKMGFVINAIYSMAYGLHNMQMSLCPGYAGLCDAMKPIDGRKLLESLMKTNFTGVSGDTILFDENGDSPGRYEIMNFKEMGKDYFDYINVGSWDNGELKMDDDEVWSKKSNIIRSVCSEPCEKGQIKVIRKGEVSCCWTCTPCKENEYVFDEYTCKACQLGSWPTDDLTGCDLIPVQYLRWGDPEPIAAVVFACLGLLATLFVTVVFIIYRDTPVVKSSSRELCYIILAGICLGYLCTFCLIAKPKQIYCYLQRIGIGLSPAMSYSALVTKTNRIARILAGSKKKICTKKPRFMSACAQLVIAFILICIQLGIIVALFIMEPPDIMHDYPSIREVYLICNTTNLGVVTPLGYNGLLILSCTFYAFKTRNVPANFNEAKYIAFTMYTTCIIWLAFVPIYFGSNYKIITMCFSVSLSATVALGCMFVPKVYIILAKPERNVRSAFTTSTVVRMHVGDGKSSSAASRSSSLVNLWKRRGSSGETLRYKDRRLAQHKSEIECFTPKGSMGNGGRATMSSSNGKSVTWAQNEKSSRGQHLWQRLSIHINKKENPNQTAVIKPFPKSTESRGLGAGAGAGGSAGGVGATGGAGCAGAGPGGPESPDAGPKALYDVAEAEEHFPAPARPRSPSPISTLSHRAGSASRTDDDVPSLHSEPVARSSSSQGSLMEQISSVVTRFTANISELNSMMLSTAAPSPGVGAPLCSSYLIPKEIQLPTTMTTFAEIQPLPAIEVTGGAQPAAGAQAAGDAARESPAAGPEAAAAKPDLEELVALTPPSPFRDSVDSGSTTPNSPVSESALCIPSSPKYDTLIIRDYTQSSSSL
# protocol: NanoBRET screen HiBiT-GRM5 in HEK293
# Assay type: binding
# measurement-parameters: GRM5; tracer 1μM
parameter: NanoBRET Fold Response
Answer field: number only, no words.

Incoming: Quick one: NanoBRET Fold Response of Cc1nc2n(c(=O)c1CCN1CCC(c3noc4cc(F)ccc34)CC1)CCCC2OC(=O)NCCOCCOCCOCCOCCNC(=O)CCc1ccc2n1[B-](F)(F)[N+]1=C(c3ccc[nH]3)C=CC1=C2 (stereo not shown) ?
Outgoing: 1.02

Incoming: I'd like to know its NanoBRET Fold Response. The molecule in question is O=C(CCc1ccc2n1[B-](F)(F)[N+]1=C(c3ccc[nH]3)C=CC1=C2)NCc1ccc(C(=O)NCCOCCC(=O)N[C@@H]2CC[C@@]3(O)[C@H]4Cc5ccc(O)c6c5[C@@]3(CCN4CC3CC3)[C@H]2O6)cc1 [Naltrexone-3-NB590]
Outgoing: 1.14

Incoming: If you can, please state the reported NanoBRET Fold Response value of COc1ccccc1N1CCN(CCCCN2C(=O)c3ccc(CNC(=O)CCOCCNC(=O)c4ccc(CNC(=O)CCc5ccc6n5[B-](F)(F)[N+]5=C(c7ccc[nH]7)C=CC5=C6)cc4)cc3C2=O)CC1 .
Outgoing: 1.15

Incoming: # input molecule: Cc1cc2c(s1)Nc1ccccc1N=C2N1CCN(CCCNC(=O)CCOCCOCCOCCOCCNC(=O)CCc2ccc3n2[B-](F)(F)[N+]2=C(c4ccc[nH]4)C=CC2=C3)CC1 ; wanted: its NanoBRET Fold Response
Outgoing: 0.97

Incoming: Item under review: CC(C)N(CC[C@H](c1ccccc1)c1cc(CCNC(=O)CCOCCOCCOCCOCCNC(=O)CCc2ccc3n2[B-](F)(F)[N+]2=C(c4ccc[nH]4)C=CC2=C3)ccc1O)C(C)C . Reported NanoBRET Fold Response?
Outgoing: 0.87

Incoming: // NanoBRET Fold Response lookup, key: CN(C)CCC=C1c2ccccc2CCc2ccc(C(=O)NCCNC(=O)CCOCCOCCOCCOCCNC(=O)CCc3ccc4n3[B-](F)(F)[N+]3=C(c5ccc[nH]5)C=CC3=C4)cc21
Outgoing: 1.02

Incoming: For the molecule shown here, CC(C)N(CC[C@H](c1ccccc1)c1cc(CCNC(=O)c2ccc(CNC(=O)CCc3ccc4n3[B-](F)(F)[N+]3=C(c5ccc[nH]5)C=CC3=C4)cc2)ccc1O)C(C)C , give the reported NanoBRET Fold Response.
Outgoing: 1.05
